# EXPERIMENT SUMMARY: basal 3T3-L1 adipocyte mitochondrial potential changes, profiling panel, cell-based, JC-1 fluorescence, 3T3-L1 adipocytes, 24 h, 100 nL compound (AID 1168); also: test concentration not given here
# RUN CONDITIONS: JC-1 mitochondrial fluorescence, higher = more signal, called active from +8 up or from −8 down
ASSAY ENDPOINT: z-score
Numbers only.

Answered cases to consult:
Give the reported value of z-score for this record: COc1ccc([Si](C)(C)[C@@H]2[C@@H](CCn3cc([C@H](O)c4ccccc4)nn3)O[C@]3(C(=O)N(Cc4ccc(N5C(=O)c6cccc7cccc5c67)cc4)c4ccccc43)[C@H]2C)cc1
0.43

Give the reported value of z-score for this record: COc1ccccc1CN1C(=O)c2ccccc2[C@@H](C(=O)NCCN2CCOCC2)[C@@H]1c1ccc(CO)cc1
0.364

API: the following record is the query input.
Give the reported value of z-score for this record: O=C1C[C@@](C(=O)NC2CC2)(c2ccc([N+](=O)[O-])cc2)[C@@H](c2ccc(CO)cc2)N1CC12CC3CC(CC(C3)C1)C2
-0.199

###

# EXPERIMENT SUMMARY: P. aeruginosa biofilm formation inhibitors, primary screen, PAO1 strain, BacTiter-Glo luminescence, LB-PBS (AID 1144)
# RUN CONDITIONS: 12 h, higher = more signal
ASSAY ENDPOINT: z-score
One number for each entry.

Answered cases to consult:
Give the reported value of z-score for this record: CN(C)CCCNC(=O)[C@@]1(Cc2ccccc2I)c2ccccc2C(=O)N(Cc2ccccc2C(F)(F)F)[C@H]1c1ccc(CO)cc1
-0.233

Give the reported value of z-score for this record: [N-]=[N+]=Nc1ccccc1[C@@H]1OC(c2ccc(OCCCO)cc2)=N[C@]1(CCS(=O)(=O)c1ccccc1)C(=O)N1CCOCC1
-0.199

Give the reported value of z-score for this record: COCCOC(=O)N1C(=O)[C@@]2(c3cc(C#CCC(C(=O)OC)C(=O)OC)ccc31)[C@H](c1ccc(O)cc1)N1[C@H](c3ccccc3)[C@H](c3ccccc3)OC(=O)[C@H]1[C@@H]2C(N)=O
0.075

API: the following record is the query input.
Give the reported value of z-score for this record: CN(C)C(=O)[C@]1(CCC(=O)OC(C)(C)C)N=C(c2ccc(OCCCO)cc2)O[C@@H]1c1ccccc1N=[N+]=[N-]
0.878

###

# EXPERIMENT SUMMARY: splicing luciferase reporter signal modulators, primary screen, spliceosome inhibition project, cell-based, HEK293, splice +/- reporter (AID 1101);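 also: HEK293 cells carrying a splicing-competent luciferase reporter gene; test concentration not given here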
# RUN CONDITIONS: luminescence, 24 h, higher = more signal, called active from +8 up or from −8 down
Output rule met for z-score not less than -0.3; output rule not met otherwise.

Entry O=C1C2C=CC(C(O)c3ccc(F)cc3)N(Nc3ccccc3)C2C(=O)N1c1ccccc1 (configuration not stated) : is its z-score no less than -0.3?
rule met

Entry C=CC[C@@]1(C(=O)N2CCOCC2)N=C(c2ccc(OCCCO)cc2)O[C@@H]1c1ccccc1N=[N+]=[N-] : is its z-score no less than -0.3?
rule not met

Entry CC(C)(C)OC(=O)CC[C@@]1(C(=O)O)N=C(c2ccc(OCCCO)cc2)O[C@@H]1c1ccccc1N=[N+]=[N-] : is its z-score no less than -0.3?
rule not met

Entry CC(C)C[C@@H]1NC(=O)[C@H]2C[C@@H](C(=O)NCCCCCCNC(=O)CS)[C@@H](c3cccc(OCCO)c3)N2C1=O : is its z-score no less than -0.3?
rule not met

Entry COCCOC(=O)N1C(=O)[C@@]2(c3cc(C#CCCO)ccc31)[C@H](C(=O)NC[C@H](O)c1ccccc1)[C@H]1C(=O)O[C@H](c3ccccc3)[C@H](c3ccccc3)N1[C@@H]2c1ccc(O)cc1 : is its z-score no less than -0.3?
rule met

Others:
Entry COCCOC(=O)N1C(=O)[C@@]2(c3cc(C#CCNC(N)=O)ccc31)[C@H](c1ccc(OCCO)cc1)N1[C@H](c3ccccc3)[C@H](c3ccccc3)OC(=O)[C@H]1[C@@H]2C(=O)N1CCc2cc(OC)c(OC)cc2C1 : is its z-score no less than -0.3?
rule met

Entry Cc1ccc(S[C@]2(C(=O)NCC(C)C)CC(=O)N(Cc3ccccc3)[C@@H]2c2ccc(CO)cc2I)cc1 : is its z-score no less than -0.3?
rule not met
